assayedTarget: Cholinesterase (Homo sapiens)
Sequence (P06276 whole entry): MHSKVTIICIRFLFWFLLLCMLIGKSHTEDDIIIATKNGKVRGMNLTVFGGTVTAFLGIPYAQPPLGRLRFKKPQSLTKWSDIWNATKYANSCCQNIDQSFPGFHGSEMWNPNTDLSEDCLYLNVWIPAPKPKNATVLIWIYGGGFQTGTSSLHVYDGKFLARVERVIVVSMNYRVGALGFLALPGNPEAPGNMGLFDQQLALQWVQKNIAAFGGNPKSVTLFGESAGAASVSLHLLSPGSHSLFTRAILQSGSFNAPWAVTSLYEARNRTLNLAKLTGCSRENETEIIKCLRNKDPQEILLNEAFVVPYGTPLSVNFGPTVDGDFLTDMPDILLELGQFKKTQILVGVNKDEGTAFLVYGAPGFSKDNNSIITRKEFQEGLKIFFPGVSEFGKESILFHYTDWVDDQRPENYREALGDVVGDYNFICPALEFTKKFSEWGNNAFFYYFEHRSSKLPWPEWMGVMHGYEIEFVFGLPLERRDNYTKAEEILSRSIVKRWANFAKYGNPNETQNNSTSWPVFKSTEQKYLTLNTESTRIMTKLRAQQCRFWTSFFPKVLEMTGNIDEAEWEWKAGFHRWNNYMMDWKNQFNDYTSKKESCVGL
measurementName: IC50

Sample `C=CCOc1ccc(CCN(CC=C)Cc2ccc(OCc3ccccc3)c(OC)c2)cc1` ; IC50 observed: > 10 µM

----------
assayedTarget: Acetylcholinesterase (Homo sapiens, UniProt P22303)
Sequence (P22303 whole entry): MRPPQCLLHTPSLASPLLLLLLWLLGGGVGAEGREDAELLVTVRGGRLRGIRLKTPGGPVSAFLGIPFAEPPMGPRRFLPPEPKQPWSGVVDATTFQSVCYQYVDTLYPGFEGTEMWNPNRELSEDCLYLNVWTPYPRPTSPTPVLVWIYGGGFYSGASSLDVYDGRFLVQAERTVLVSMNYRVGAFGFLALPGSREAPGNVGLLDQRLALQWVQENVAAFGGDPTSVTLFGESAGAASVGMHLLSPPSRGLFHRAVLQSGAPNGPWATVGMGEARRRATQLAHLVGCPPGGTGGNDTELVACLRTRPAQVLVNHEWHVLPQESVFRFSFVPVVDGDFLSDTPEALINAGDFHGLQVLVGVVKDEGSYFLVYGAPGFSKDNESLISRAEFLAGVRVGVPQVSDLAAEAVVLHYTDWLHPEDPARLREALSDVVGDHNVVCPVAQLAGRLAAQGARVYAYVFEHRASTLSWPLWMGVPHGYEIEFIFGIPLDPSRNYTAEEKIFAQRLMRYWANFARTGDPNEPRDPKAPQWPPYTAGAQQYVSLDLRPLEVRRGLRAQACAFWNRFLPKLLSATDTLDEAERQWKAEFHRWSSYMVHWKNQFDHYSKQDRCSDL
pIC50: −log10 of the molar value.
measurementName: pIC50

Bench note, Acetylcholinesterase (Homo sapiens, UniProt P22303): `CN(CCc1ccc(O)cc1)Cc1cc2c(cc1-c1cccc3c1N(C)CC3)OCO2` , pIC50 reads < 4.00

Data provenance: ChEMBL document CHEMBL5532688
